- protocol: Partitioning between octan-1-ol and water (NMR detection)
- Type: physicochemical
- condition-context: octan-1-ol/water; 298 K, 24 hours partitioning, NMR
Each record is given label 1 if its reported logP at 24 h is strictly below -0.4. Records at or above -0.4 are given label 0.

{"columns": ["molecule", "class-assignment"],
 "data": [
  ["COC(=O)C1CCCN1C(C)=O (centres unmarked) [compound 1, Methyl N-acetylprolinate]", "label 1"],
  ["CCOC(=O)C1CCCN1C(C)=O (centres unmarked) [compound 2, Ethyl N-acetylprolinate]", "label 0"],
  ["CC(=O)N1CCC[C@H]1C(=O)OCC(F)F [compound 4, 2,2-Difluoroethyl N-acetylprolinate]", "label 0"],
  ["CC(=O)N1CCC[C@H]1C(N)=O [compound 7, reference compound]", "label 1"],
  ["CC(=O)N1CCC[C@H]1C(=O)OCC(F)(F)F [compound 5, 2,2,2-Trifluoroethyl N-acetylprolinate]", "label 0"]
]}

* * *

- protocol: Hydrolytic stability of esters 1–5 in aqueous potassium phosphate buffer, monitored by 1H and 19F NMR
- Format: physicochemical
- condition-context: pH 11.0, 298 K, ester hydrolysis, pseudo-first order
observable: τ½, min (aq buffer)

{"columns": ["molecule", "observable", "endpoint-value"],
 "data": [
  ["CC(=O)N1CCC[C@H]1C(=O)OCCF [compound 3, 2-Fluoroethyl N-acetylprolinate]", "τ½, min (aq buffer)", "80 ± 14 (pH 11.0) min"],
  ["COC(=O)C1CCCN1C(C)=O (centres unmarked) [compound 1, Methyl N-acetylprolinate]", "τ½, min (aq buffer)", "224 ± 20 (pH 11.0) min"],
  ["CCOC(=O)C1CCCN1C(C)=O (centres unmarked) [compound 2, Ethyl N-acetylprolinate]", "τ½, min (aq buffer)", "603 ± 58 (pH 11.0) min"],
  ["CC(=O)N1CCC[C@H]1C(=O)OCC(F)F [compound 4, 2,2-Difluoroethyl N-acetylprolinate]", "τ½, min (aq buffer)", "19.7 ± 2.5 (pH 11.0) min"],
  ["CC(=O)N1CCC[C@H]1C(=O)OCC(F)(F)F [compound 5, 2,2,2-Trifluoroethyl N-acetylprolinate]", "τ½, min (aq buffer)", "6.4 ± 1.7 min"]
]}

* * *

- protocol: Amide rotational thermodynamics and kinetics (trans/cis isomerism) by NMR / EXSY
- Assay type: physicochemical
- condition-context: C6D6 (ε 2.27), 298 K, analyte 50 ± 10 mM
Where Ktrans/cis in C6D6 equals or exceeds 7, the correct label is True; where it does not, the label is False.

{"columns": ["compound", "class-assignment"],
 "data": [
  ["COC(=O)C1CCCN1C(C)=O (centres unmarked) [compound 1, Methyl N-acetylprolinate]", "False"],
  ["CC(=O)N1CCC[C@H]1C(=O)OCC(F)(F)F [compound 5, 2,2,2-Trifluoroethyl N-acetylprolinate]", "True"],
  ["CC(=O)N1CCC[C@H]1C(=O)OCC(F)F [compound 4, 2,2-Difluoroethyl N-acetylprolinate]", "True"],
  ["CCOC(=O)C1CCCN1C(C)=O (centres unmarked) [compound 2, Ethyl N-acetylprolinate]", "False"]
]}

* * *

- protocol: Hydrolytic stability of esters 1–5 in aqueous potassium phosphate buffer, monitored by 1H and 19F NMR
- Format: physicochemical
- condition-context: aqueous potassium phosphate buffer, pH 8, pH 8, 298 K; read-out: half-life at pH 8, experimentally determined (converted)

{"columns": ["compound", "half-life at 0.5 mM, h"],
 "data": [
  ["CC(=O)N1CCC[C@H]1C(=O)OCC(F)(F)F [compound 5, 2,2,2-Trifluoroethyl N-acetylprolinate]", 102]
]}

* * *

- protocol: Amide rotational thermodynamics and kinetics (trans/cis isomerism) by NMR / EXSY
- Format: physicochemical
- condition-context: CD3CN, 298 K

{"columns": ["compound", "Ktrans/cis in CD3CN"],
 "data": [
  ["CC(=O)N1CCC[C@H]1C(=O)OCC(F)F [compound 4, 2,2-Difluoroethyl N-acetylprolinate]", "4.85±0.07"],
  ["COC(=O)C1CCCN1C(C)=O (centres unmarked) [compound 1, Methyl N-acetylprolinate]", "4.08±0.04"],
  ["CCOC(=O)C1CCCN1C(C)=O (centres unmarked) [compound 2, Ethyl N-acetylprolinate]", "3.58±0.04"],
  ["CC(=O)N1CCC[C@H]1C(=O)OCC(F)(F)F [compound 5, 2,2,2-Trifluoroethyl N-acetylprolinate]", "5.65±0.05"],
  ["CC(=O)N1CCC[C@H]1C(=O)OCCF [compound 3, 2-Fluoroethyl N-acetylprolinate]", "4.12±0.17"]
]}

* * *

- protocol: Partitioning between octan-1-ol and water (NMR detection)
- Type: physicochemical
- condition-context: 298 K, 24 hours partitioning, NMR
observable: logP at 24 h

{"columns": ["molecule", "endpoint-value"],
 "data": [
  ["CC(=O)N1CCC[C@H]1C(=O)OCCF [compound 3, 2-Fluoroethyl N-acetylprolinate]", -0.43]
]}

* * *

- protocol: Amide rotational thermodynamics and kinetics (trans/cis isomerism) by NMR / EXSY
- Format: physicochemical
- condition-context: CDCl3 (ε 4.81), 298 K
Listed here: items and their measured Ktrans/cis in CDCl3.
observable: Ktrans/cis in CDCl3

{"columns": ["compound", "endpoint-value"],
 "data": [
  ["CC(=O)N1CCC[C@H]1C(=O)OCCF [compound 3, 2-Fluoroethyl N-acetylprolinate]", 4.44],
  ["CC(=O)N1CCC[C@H]1C(=O)OCC(F)F [compound 4, 2,2-Difluoroethyl N-acetylprolinate]", 6.29],
  ["CC(=O)N1CCC[C@H]1C(=O)OCC(F)(F)F [compound 5, 2,2,2-Trifluoroethyl N-acetylprolinate]", 6.65],
  ["COC(=O)C1CCCN1C(C)=O (centres unmarked) [compound 1, Methyl N-acetylprolinate]", 3.84],
  ["CCOC(=O)C1CCCN1C(C)=O (centres unmarked) [compound 2, Ethyl N-acetylprolinate]", 3.20]
]}

* * *

- protocol: Amide rotational thermodynamics and kinetics (trans/cis isomerism) by NMR / EXSY
- Type: physicochemical
- condition-context: D2O (ε 80.1), 298 K, analyte 50 ± 10 mM, 1H/19F NMR
- Text: For 1–5, we found the trans/cis ratios ≈ 5 for all five esters when measured in aqueous medium; the kinetic parameters of the amide rotation were also nearly identical (Table 2). We then noticed that the trans/cis ratios measured for the fluorine-labeled esters 3–5 in nonpolar solvents (such as benzene) were systematically higher relative to the reference compounds 1 and 2. […]
Listed here: items and their measured Ktrans/cis in D2O.

{"columns": ["compound", "Ktrans/cis in D2O"],
 "data": [
  ["CC(=O)N1CCC[C@H]1C(=O)OCC(F)F [compound 4, 2,2-Difluoroethyl N-acetylprolinate]", 4.95],
  ["COC(=O)C1CCCN1C(C)=O (centres unmarked) [compound 1, Methyl N-acetylprolinate]", 4.94],
  ["CCOC(=O)C1CCCN1C(C)=O (centres unmarked) [compound 2, Ethyl N-acetylprolinate]", 4.60],
  ["CC(=O)N1CCC[C@H]1C(=O)OCCF [compound 3, 2-Fluoroethyl N-acetylprolinate]", 4.74],
  ["CC(=O)N1CCC[C@H]1C(=O)OCC(F)(F)F [compound 5, 2,2,2-Trifluoroethyl N-acetylprolinate]", 5.48]
]}

* * *

- protocol: Amide rotational thermodynamics and kinetics (trans/cis isomerism) by NMR / EXSY
- Format: physicochemical
- condition-context: CD3OD (ε 32.7), 298 K

{"columns": ["molecule", "Ktrans/cis in CD3OD"],
 "data": [
  ["COC(=O)C1CCCN1C(C)=O (centres unmarked) [compound 1, Methyl N-acetylprolinate]", 3.78],
  ["CC(=O)N1CCC[C@H]1C(=O)OCC(F)F [compound 4, 2,2-Difluoroethyl N-acetylprolinate]", 4.12],
  ["CC(=O)N1CCC[C@H]1C(=O)OCC(F)(F)F [compound 5, 2,2,2-Trifluoroethyl N-acetylprolinate]", 4.49],
  ["CC(=O)N1CCC[C@H]1C(=O)OCCF [compound 3, 2-Fluoroethyl N-acetylprolinate]", 3.61],
  ["CCOC(=O)C1CCCN1C(C)=O (centres unmarked) [compound 2, Ethyl N-acetylprolinate]", 3.49]
]}

* * *

Listed here: items and their measured Ktrans/cis in CD2Cl2.
- protocol: Amide rotational thermodynamics and kinetics (trans/cis isomerism) by NMR / EXSY
- Format: physicochemical
- condition-context: CD2Cl2 (ε 8.93), 298 K
observable: Ktrans/cis in CD2Cl2

{"columns": ["compound", "endpoint-value"],
 "data": [
  ["CC(=O)N1CCC[C@H]1C(=O)OCCF [compound 3, 2-Fluoroethyl N-acetylprolinate]", "4.77±0.10"],
  ["CCOC(=O)C1CCCN1C(C)=O (centres unmarked) [compound 2, Ethyl N-acetylprolinate]", "3.52±0.03"],
  ["CC(=O)N1CCC[C@H]1C(=O)OCC(F)(F)F [compound 5, 2,2,2-Trifluoroethyl N-acetylprolinate]", "7.07±0.11"],
  ["COC(=O)C1CCCN1C(C)=O (centres unmarked) [compound 1, Methyl N-acetylprolinate]", "4.18±0.03"],
  ["CC(=O)N1CCC[C@H]1C(=O)OCC(F)F [compound 4, 2,2-Difluoroethyl N-acetylprolinate]", "6.57±0.14"]
]}
